Details: buffer; pH 7.4; 200.0 µM
Assign class by solubility kinetic: not lower than 3 µg/mL means Yes; lower than 3 µg/mL means No.

Answered cases to consult:
>  <COMPOUND>
O=C(O)CSCC(=O)NCc1c(Cl)cccc1Oc1ccccc1

>  <CLASS_LABEL>
Yes

$$$$
>  <COMPOUND>
CCOC(=O)c1sc(=S)n(-c2ccccc2)c1C

>  <CLASS_LABEL>
Yes

$$$$
>  <COMPOUND>
COc1ccc(CNC(=S)Nc2ccc(F)c(Cl)c2)cc1OC

>  <CLASS_LABEL>
Yes

$$$$
>  <COMPOUND>
COc1ccc(C(=O)COC(=O)CN2C(=O)C3CC=CCC3C2=O)c(OC)c1 (configuration not stated)

>  <CLASS_LABEL>
Yes

$$$$
>  <COMPOUND>
COC(=O)C1CCN(CC(=O)Nc2ccc3c(c2)OCCO3)CC1

>  <CLASS_LABEL>
Yes

$$$$

Does the reported solubility kinetic for `O=Cc1cc2cc3c(cc2nc1Cl)OCCO3` fall at or above the 3 µg/mL mark?
No

Another: `Cc1c(O)c(CN(C)C)cc2c1oc(=O)c1ccccc12`
Yes

Another: `Cc1nc([N+](=O)[O-])c(Br)n1Cc1ccccc1`
Yes

Another: `CN(Cc1nc(-c2ccccc2)no1)C1CCOCC1`
Yes

Another: `CS(=O)(=O)N1CCC(C(=O)Nc2ccc(C(N)=O)cc2)CC1`
Yes

Another: `CCOC(=O)C1CCN(C(=O)COC(=O)CSc2ccccc2C)CC1`
Yes

Another: `Cc1sc2ncnc(N3CCN(S(=O)(=O)c4ccc(C(C)(C)C)cc4)CC3)c2c1C`
No

###

Details: buffer; pH 7.4; 200.0 µM
log10(solubility kinetic) by entry:
# values: log10(solubility kinetic), units µg/mL

>  <COMPOUND>
CC(=O)Oc1ccc2c(=O)oc(-c3ccccc3)nc2c1

>  <OBSERVABLE>
log10(solubility kinetic)

>  <REPORTED>
0.49

$$$$
>  <COMPOUND>
CNc1snc(C)c1C(=O)OC(C)C(=O)Nc1cccc(C)c1 (centres undefined)

>  <OBSERVABLE>
log10(solubility kinetic)

>  <REPORTED>
0.68

$$$$
>  <COMPOUND>
O=C(CS(=O)(=O)c1ccc2ccccc2c1)N1CCCCCC1

>  <OBSERVABLE>
log10(solubility kinetic)

>  <REPORTED>
1.67

$$$$

The record that follows has no log10(solubility kinetic) shown yet.
Item under review: `COc1c(S(=O)(=O)Nc2cccnc2)ccc(Cl)c1Cl` . Reported log10(solubility kinetic)?
1.49

###

Settings: buffer; pH 7.4; 200.0 µM
solubility kinetic by entry:
Numbers only; they are read as µg/mL.

>  <SMILES_ENTRY>
COc1ccc(-c2noc(CN(C)C(=O)c3ccoc3C)n2)cc1OC

>  <solubility kinetic (µg/mL)>
43.3

$$$$
>  <SMILES_ENTRY>
CSc1ncccc1C(=O)OCC(=O)Nc1ccc(N2CCOCC2)cc1

>  <solubility kinetic (µg/mL)>
10.6

$$$$

The record that follows has no solubility kinetic shown yet.
Item under review: `CCOC(=O)Cc1ccc(NC(=O)c2cccc([N+](=O)[O-])c2)cc1` . Reported solubility kinetic?
2.6

###

Conditions: buffer; pH 7.4; 200.0 µM
Assign class by solubility kinetic: not lower than 3 µg/mL means True; lower than 3 µg/mL means False.

>  <COMPOUND>
CCc1ccccc1NC(=O)NCc1ccc2c(c1)OCO2

>  <CLASS_LABEL>
False

$$$$

Does the reported solubility kinetic for COc1ccc(F)cc1S(=O)(=O)NCC1CCCO1 (configuration not stated) fall at or above the 3 µg/mL mark?
True

Another: Cl.O=C(CCCN1CCOC(c2ccccc2)C1)c1ccc(F)cc1 (configuration not stated)
True

Another: `O=C1CCCC(O)=C1N=Nc1ccc(C(=O)O)cc1`
True

###

Details: buffer; pH 7.4; 200.0 µM
Assign class by solubility kinetic: not lower than 6 µg/mL means Fulfilled; lower than 6 µg/mL means Not fulfilled.

>  <MOLECULE>
CCOC(=O)C1=C(N)c2ccccc2CC1C1CCCC1 (centres undefined)

>  <CLASS_LABEL>
Not fulfilled

$$$$
>  <MOLECULE>
O=C(Cn1c(=O)oc2ccc(Cl)cc21)Nc1ccon1

>  <CLASS_LABEL>
Fulfilled

$$$$
>  <MOLECULE>
Cc1ccc(S(=O)(=O)Nc2ccc(F)cc2)cc1C(=O)N1CCOCC1

>  <CLASS_LABEL>
Fulfilled

$$$$
>  <MOLECULE>
CC1(C)Oc2ccc3ccc(=O)oc3c2/C(=N/O)C1=O

>  <CLASS_LABEL>
Fulfilled

$$$$
>  <MOLECULE>
COc1cccc(NC(=O)[C@@H]2CCC(=O)N2C2OC(=O)c3ccccc32)c1 (some centres undefined)

>  <CLASS_LABEL>
Fulfilled

$$$$
>  <MOLECULE>
O=C(O)CC1(CC(=O)Nc2ccc3c(c2)C(=O)OC3)CCCCC1

>  <CLASS_LABEL>
Fulfilled

$$$$

Does the reported solubility kinetic for `O=C(CNC(=O)c1ccc(Cl)cc1)c1ccc(Cl)cc1` fall at or above the 6 µg/mL mark?
Fulfilled

Another: `Cn1c(=O)[nH]c(=O)c2c1nc(N)n2Cc1ccccc1`
Fulfilled

Another: `Cc1cnc(NC(=O)Nc2ccccc2)c(C)n1`
Fulfilled

Another: `CC(=O)c1cccc(NC(=O)CCNC(=O)c2cccc(C)c2)c1`
Fulfilled

Another: `O=C(NC1CCCC1)c1cc(-c2ccc(Cl)cc2)on1`
Not fulfilled

Another: Oc1ccc(CCC2CCCCN2Cc2nc(C3CC3)no2)cc1 (centres undefined)
Fulfilled

Another: `C/C(Cn1ncc(N2CCOCC2)c(Cl)c1=O)=N\O`
Fulfilled

Another: `CCC(=O)NNc1nc2c(F)cccc2s1`
Fulfilled

Another: `Cc1cc(C)c(S(=O)(=O)Nc2cc(C)on2)c(C)c1`
Fulfilled

Another: `Cc1ccc(Oc2ccc(C(F)(F)F)cc2[N+](=O)[O-])c([N+](=O)[O-])n1`
Fulfilled

Another: `CC(=O)c1ccc(NC(=O)NC2CCCCCCC2)cc1`
Not fulfilled

###

Details: buffer; pH 7.4; 200.0 µM
OBSERVABLE: solubility kinetic

The examples below pair each entry with its known result.
>  <MOLECULE>
CC1CCCC(C)N1C(=O)COC(=O)Cc1ccc(Cl)cc1 (configuration not stated)

>  <REPORTED>
> 48.6 µg/mL

$$$$
>  <MOLECULE>
CC(=O)N1CCCC(C(=O)c2ccc(Oc3ccccc3)cc2)C1 (configuration not stated)

>  <REPORTED>
> 48.5 µg/mL

$$$$
>  <MOLECULE>
COc1ccc(S(=O)(=O)NC2CCCC2)cc1C(N)=O

>  <REPORTED>
> 44.8 µg/mL

$$$$

Item under review: `COc1ccc2nc(NC(=O)c3c(C)noc3C)sc2c1` . Reported solubility kinetic?
> 45.5 µg/mL

Another: `O=C(CCS(=O)(=O)c1ccccc1)NC1CCCCC1`
> 44.3 µg/mL

Another: CN1C(=O)c2ccccc2C(O)c2ccccc21 (configuration not stated)
31.8 µg/mL

Another: `O=[N+]([O-])c1ccc(CSc2ccc(S(=O)(=O)N3CCCCC3)cn2)cc1`
2.4 µg/mL

Another: `COC(=O)c1ccc(COC(=O)c2cccn2C)o1`
27.1 µg/mL

Another: Nc1ncnc2c1ncn2C1OC(C(=O)NC2CC2)C(O)C1O (configuration not stated)
> 48 µg/mL

Another: `Cc1cccc(-c2nc3cc([N+](=O)[O-])ccc3o2)c1`
< 0.3 µg/mL

Another: Cl.Clc1ccc(CNCC2CCCO2)c(Cl)c1 (configuration not stated)
37 µg/mL

Another: Cc1ccc(S(=O)(=O)N2CCCCC2C(=O)Nc2ccc(N(C)C)cc2)cc1 (configuration not stated)
5.7 µg/mL

###

solubility kinetic by entry:
Conditions: buffer; pH 7.4; 200.0 µM
Numbers only; they are read as µg/mL.

The examples below pair each entry with its known result.
>  <MOLECULE>
COc1ccc(C(=S)N2CCN(c3cccc(Cl)c3)CC2)cc1

>  <REPORTED>
1.2

$$$$
>  <MOLECULE>
O=C(Cc1cccs1)NCc1ccc(Cl)cc1Cl

>  <REPORTED>
13.1

$$$$
>  <MOLECULE>
O=C(COC(=O)COc1ccccc1)Nc1ncc(Cl)cc1Cl

>  <REPORTED>
47

$$$$
>  <MOLECULE>
N#CC(C(=O)c1ccccc1Cl)=C1SCCCS1

>  <REPORTED>
9.4

$$$$
>  <MOLECULE>
CC(=O)c1cccc(NC(=O)N2CCC(NC(=O)c3ccco3)CC2)c1

>  <REPORTED>
51.6

$$$$

Item under review: `COc1cscc1C(N)=O` . Reported solubility kinetic?
19.4

Another: `O=C1CSC(=Nc2cccc(Cl)c2Cl)N1`
37.4

Another: `CCOc1ccc(/C=C(\C)C(=O)c2c(C)cc(C)[nH]c2=O)cc1`
38.3

Another: CCCS(=O)(=O)c1cnc(C2COc3ccccc3O2)nc1N (stereo not given)
12.7

Another: `CCCCC/C(=N/O)c1c(C)[nH]c2ccccc12`
29.8

Another: CCN(C(=O)C1CCCO1)c1ccccc1 (stereo not given)
25.2

Where do these numbers come from? They come from PubChem BioAssay AID1996.
